- system: DCN1 (DCUND1) protein PONY domain (Homo sapiens (Human))
- assay-explanation: TR-FRET assay (binding to DCN-1, displacement of FAM-labeled probe)
- test-settings: read-out: TR FRET IC50 1 hr; 1 hr after treatment with compound
- Protocol: The TR-FRET assay was designed following the Scott et al. protocol (Scott et al., Nat Chem Biol. 2017 August; 13(8): 850-857. doi:10.1038/nchembio.2386). […] The TR-FRET ratio between Tb-DCN1 and the FAM-labeled probe was measured in a 384-well opti-plate (Perkin Elmer) using a plate reader (BMG) at 1, 5, and 24 hrs after treatment with compound (final DMSO concentration of 0.1%). […]
pIC50: −log10 of the molar value.
Below is a list of entries, each paired with its recorded pIC50 value.

- molecule: "CCN1C(=O)[C@@H](NC(=O)c2cccc(C(F)(F)F)c2)[C@H](c2cccc(NC(=O)C3=C(C(=O)OC)CC3)c2)c2c(C)nn(-c3ccccc3)c21 [Compound I-34]"
  system: "DCN1 (DCUND1) protein PONY domain (Homo sapiens (Human))"
  pIC50: "≥ 6.70"

Exercise: I am curious: what pIC50 value has been reported for C=C(CN1CC2CCC1CO2)C(=O)NCc1cccc([C@@H]2c3cnn(-c4ccccc4)c3N(CC)C(=O)[C@H]2NC(=O)c2cccc(C(F)(F)F)c2)c1 (stereo partly drawn) [Compound I-293] ?
Key: ≥ 6.70

Exercise: Requested read-out: pIC50. Entry: CCN1C(=O)[C@@H](NC(=O)c2cccc(C(F)(F)F)c2)[C@H](c2cncc(NC(=O)C3=CCC3)c2)c2cnn(-c3ccccc3)c21 (racemic) [Compound I-36]
Key: 5.52 to 6.00

----------
- system: DCN2 (DCUND2) protein PONY domain (Homo sapiens (Human), UniProt Q6PH85)
- Sequence (Q6PH85 60-248): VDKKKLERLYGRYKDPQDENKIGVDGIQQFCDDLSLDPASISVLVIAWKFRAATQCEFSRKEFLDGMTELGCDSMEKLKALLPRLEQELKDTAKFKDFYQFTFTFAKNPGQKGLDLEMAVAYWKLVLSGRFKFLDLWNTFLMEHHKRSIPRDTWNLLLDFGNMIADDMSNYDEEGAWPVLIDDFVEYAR
- assay-explanation: DCN2 TR-FRET assay, measurement of Kinact/KI
- Type: binding
parameter-measured: kinact/KI

- compound: "C=C(CN1CCOCC1)C(=O)Nc1cccc([C@@H]2c3c(C)nn(-c4ccccc4)c3N(CC)C(=O)[C@H]2NC(=O)c2cccc(C(F)(F)F)c2)c1"
  parameter-measured: "kinact/KI"
  value-observed: "3.33e+06 to 8.33e+06 M⁻¹ s⁻¹"

Moving on to the next compound.
Exercise: I'd like to know its kinact/KI. The compound in question is C/C=C(\CN1CCN(C2COC2)CC1)C(=O)Nc1cccc([C@@H]2c3cnn(-c4ccccc4)c3N(CC)C(=O)[C@H]2NC(=O)c2csc(C(F)(F)F)n2)c1
Key: 167000 to 3.33e+06 M⁻¹ s⁻¹

----------
- system: DCN1 (DCUND1) protein PONY domain (Homo sapiens (Human), UniProt Q96GG9)
- Sequence (Q96GG9 60-248): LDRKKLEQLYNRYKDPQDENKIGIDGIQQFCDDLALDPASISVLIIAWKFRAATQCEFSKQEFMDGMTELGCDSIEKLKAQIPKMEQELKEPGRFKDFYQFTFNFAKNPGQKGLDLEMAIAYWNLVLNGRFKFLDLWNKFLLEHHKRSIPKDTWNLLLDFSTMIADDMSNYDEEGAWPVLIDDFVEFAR
- assay-explanation: TR-FRET assay (binding to DCN-1, displacement of FAM-labeled probe)
- test-settings: TR FRET IC50 1 hr (nM), 1 hr after treatment with compound
parameter-measured: IC50

- compound: "CCN1C(=O)[C@@H](NC(=O)c2nccc(C(F)(F)F)n2)[C@H](c2cccc(C(=O)N3C[C@@H](F)C[C@H]3C#N)c2)c2cnn(-c3ccccc3)c21"
  IC50: "1000 to 3000 nM"
- compound: "CCN1C(=O)[C@H](NC(=O)c2cccc(C(F)(F)F)c2)[C@@H](c2cccc(N3CC=CS3(=O)=O)c2)c2c(C)nn(-c3ccccc3)c21 (racemic)"
  IC50: "> 3000 nM"
- compound: "CCN1C(=O)[C@@H](NC(=O)c2cccc(C(F)(F)F)c2)[C@H](c2cccc(CNC/C=C/C(=O)N(C)C)c2)c2cnn(-c3ccccc3)c21"
  IC50: "1000 to 3000 nM"
- compound: "C=C(CN1CCOCC1)C(=O)NCc1cccc([C@@H]2c3cnn(-c4ccccc4)c3N(CC)C(=O)[C@H]2NC(=O)c2ccn(CC(F)F)n2)c1"
  IC50: "200 to 1000 nM"

Please look at the following compound next.
Exercise: Any idea what its IC50 is? The compound is CCN1C(=O)[C@@H](NC(=O)c2cccc(C(F)(F)F)c2)[C@@H](c2cccc(NC(=O)/C=C/C(F)(F)F)c2)c2c(C)nn(-c3ccccc3)c21 (racemic)
Key: > 3000 nM

----------
The reader will find reported Emax values listed item by item below.
- system: DCN1 protein (Homo sapiens (Human), UniProt Q96GG9)
- Sequence (Q96GG9 whole entry): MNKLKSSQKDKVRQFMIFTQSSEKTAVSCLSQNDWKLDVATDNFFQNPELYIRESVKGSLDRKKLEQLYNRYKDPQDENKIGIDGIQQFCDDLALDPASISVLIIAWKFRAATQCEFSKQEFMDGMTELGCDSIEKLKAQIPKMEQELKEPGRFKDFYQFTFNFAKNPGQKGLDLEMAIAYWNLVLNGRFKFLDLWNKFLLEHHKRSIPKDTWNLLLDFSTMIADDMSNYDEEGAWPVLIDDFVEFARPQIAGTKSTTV
- assay-explanation: Intact protein MS analysis with the RapidFire-TOF system (covalent adduct formation)
- Assay type: binding
- test-settings: 400 nM DCN1, incubated at room temperature for 3 hours

Use these answered entries as a reference point.
- compound: "C=C(CN1CCC(F)(F)C1)C(=O)Nc1cccc([C@@H]2c3c(C)nn(-c4ccccc4)c3N(CC)C(=O)[C@H]2NC(=O)c2cccc(C(F)(F)F)c2)c1 (racemic)"
  parameter-measured: "Emax"
  value-observed: "80 to 100%"
- compound: "C#CC(=O)Nc1cccc([C@H]2c3c(C)nn(-c4ccccc4)c3N(CC)C(=O)[C@@H]2NC(=O)c2cccc(C(F)(F)F)c2)c1 (racemic)"
  parameter-measured: "Emax"
  value-observed: "80 to 100%"
- compound: "CCN1C(=O)[C@@H](NC(=O)c2cccc(C(F)(F)F)c2)[C@@H](c2cccc(NC(=O)/C=C/C(F)(F)F)c2)c2c(C)nn(-c3ccccc3)c21 (racemic)"
  parameter-measured: "Emax"
  value-observed: "0 to 30%"
- compound: "CC#CC(=O)Nc1cccc([C@H]2c3c(C)nn(-c4ccccc4)c3N(CC)C(=O)[C@H]2NC(=O)c2cccc(C(F)(F)F)c2)c1 (racemic)"
  parameter-measured: "Emax"
  value-observed: "0 to 30%"
- compound: "C/C=C(\\CN1CCN(C2COC2)CC1)C(=O)Nc1cccc([C@@H]2c3cnn(-c4ccccc4)c3N(CC)C(=O)[C@H]2NC(=O)c2csc(C(F)(F)F)n2)c1"
  parameter-measured: "Emax"
  value-observed: "80 to 100%"
- compound: "CCN1C(=O)[C@@H](NC(=O)c2nccc(C(F)(F)F)n2)[C@H](c2cccc(NC(=O)C3=CCN(C4COC4)C3)c2)c2c(C)nn(-c3ccccc3)c21"
  parameter-measured: "Emax"
  value-observed: "0 to 30%"
- compound: "C=C(CN1CC(F)(F)C1)C(=O)Nc1cccc([C@@H]2c3c(C)nn(-c4ccccc4)c3N(CC)C(=O)[C@H]2NC(=O)c2cccc(C(F)(F)F)c2)c1 (racemic)"
  parameter-measured: "Emax"
  value-observed: "80 to 100%"
- compound: "C/C=C(\\CN1CCN(C2COC2)CC1)C(=O)NCc1cccc([C@@H]2c3cnn(-c4ccccc4)c3N(CC)C(=O)[C@H]2NC(=O)c2nccc(C(F)(F)F)n2)c1"
  parameter-measured: "Emax"
  value-observed: "80 to 100%"

Exercise: Could you share what Emax was measured for CCN1C(=O)[C@@H](NC(=O)c2cccc(C(F)(F)F)c2)[C@@H](c2cccc(NC(=O)C3=CCC3)c2)c2c(C)nn(-c3ccccc3)c21 , tested on DCN1 protein (Homo sapiens (Human), UniProt Q96GG9)?
Key: 0 to 30%

Exercise: Form entry - test system: DCN1 protein (Homo sapiens (Human), UniProt Q96GG9); read-out: Emax; compound: C=CC(=O)Nc1cccc([C@H]2c3c(C)nn(-c4ccccc4)c3N(CC)C(=O)[C@@H]2NC(=O)c2cccc(C(F)(F)F)c2)c1 (racemic)
Key: 80 to 100%

Exercise: Request: Emax, test system DCN1 protein (Homo sapiens (Human), UniProt Q96GG9), entry CCN1C(=O)[C@@H](NC(=O)c2cccc(C(F)(F)F)c2)[C@@H](c2ccccc2NC(=O)CCl)c2c(C)nn(-c3ccccc3)c21 (racemic)
Key: 80 to 100%

----------
- system: DCN1 protein (Homo sapiens (Human))
- assay-explanation: Intact protein MS analysis with the RapidFire-TOF system (covalent adduct formation)
- Format: binding
- test-settings: 400 nM DCN1, incubated at room temperature for 3 hours
parameter-measured: Emax

# count of solved cases: 2
- compound: "C/C=C/C(=O)Nc1cccc([C@H]2c3c(C)nn(-c4ccccc4)c3N(CC)C(=O)[C@@H]2NC(=O)c2cccc(C(F)(F)F)c2)c1 (racemic)"
  Emax: "0 to 30%"
- compound: "CCN1C(=O)[C@H](NC(=O)c2cccc(C(F)(F)F)c2)[C@@H](c2ccccc2NC(=O)[C@H](C)Br)c2cnn(-c3ccccc3)c21 (mixture of isomers)"
  Emax: "80 to 100%"

Exercise: So what does the record say about Emax for C/C=C(\CN1CCN(C2COC2)CC1)C(=O)NCc1cccc([C@@H]2c3cnn(-c4ccccc4)c3N(CC)C(=O)[C@H]2NC(=O)c2ccn(C(F)(F)F)n2)c1 [Compound I-230A] ?
Key: 80 to 100%

Exercise: Give the measured Emax of C/C=C(\CN1CCN(C2COC2)CC1)C(=O)Nc1cccc([C@@H]2c3cnn(-c4ccccc4)c3N(CC)C(=O)[C@H]2NC(=O)c2nccc(C(F)(F)F)n2)c1 .
Key: 80 to 100%

Exercise: Which Emax is reported for this compound? C=CC(=O)Nc1ccccc1[C@H]1c2cnn(-c3ccccc3)c2N(CC)C(=O)[C@@H]1NC(=O)c1cccc(C(F)(F)F)c1 (racemic)
Key: 30 to 80%
